Molecular target: Dual specificity protein phosphatase 5 [180-384] (Homo sapiens, UniProt Q16690)
Sequence (Q16690 whole entry): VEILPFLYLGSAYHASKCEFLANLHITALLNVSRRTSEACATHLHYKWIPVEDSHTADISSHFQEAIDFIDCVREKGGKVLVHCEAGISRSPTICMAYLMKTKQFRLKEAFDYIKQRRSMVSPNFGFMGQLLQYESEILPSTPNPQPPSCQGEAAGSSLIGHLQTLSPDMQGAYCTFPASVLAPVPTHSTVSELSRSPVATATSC
pIC50: −log10 of the molar value.
readout-type: pIC50

A = O=S(=O)(O)c1ccc2c(S(=O)(=O)O)cc(S(=O)(=O)O)cc2c1 [naphthalene-1,3,6-trisulfonate(3-)]
B = Cc1ccc(C(=O)Nc2ccc(S(=O)(=O)O)c3cc(S(=O)(=O)O)cc(S(=O)(=O)O)c23)cc1NC(=O)c1cccc(NC(=O)Nc2cccc(C(=O)Nc3cc(C(=O)Nc4ccc(S(=O)(=O)O)c5cc(S(=O)(=O)O)cc(S(=O)(=O)O)c45)ccc3C)c2)c1 [Suramin hexasodium]
A or B : whose pIC50 is greater? Answer = label.
B
